experiment: chemical genetic growth profiling, strain panel (AID 1159580);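 note: tested at 20 µM; growth read once vehicle control cultures reached saturation at 30 °C; 1 = growth at the plate median or of vehicle wells; lower values mean less growth of the strain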; details: S. cerevisiae deletion strains, growth OD, locus YMR078C, strain ctf18
Among all 5,500 compounds or so, about 2,000 (36%) were called active. Another 18% or so got no clear call; they are omitted. Cut-off read from the data, not from the text of the source: active = normalized growth mostly below about 0.91 (no sharp cut-off); inconclusive = no clear call, values can overlap the other calls; inactive = mostly above about 0.92. Some of the results follow.
Classes used: active, inactive

CC(=O)O[C@H]1CC[C@@]2(C)C(CC[C@]3(C)C2C(=O)C=C2C4[C@@H](C)[C@H](C)CC[C@]4(C(=O)O)CC[C@]23C)C1(C)C (stereo partly drawn): inactive
CC(=O)O[C@H]1CC[C@@]2(C)C(CC[C@]3(C)C2CC=C2C4CC(C)(C)CC[C@]4(C)CC[C@]23C)C1(C)C (stereo partly drawn): inactive
C[C@@H]1OC(O[C@H]2C(O[C@H]3CC[C@@]4(C)C(CC[C@]5(C)C4CC=C4C6CC(C)(C)CC[C@]6(C(=O)O)CC[C@]45C)[C@]3(C)CO)OC[C@H](O)[C@@H]2O)[C@H](O)[C@H](O)[C@H]1O (stereo partly drawn): active

---

normalized growth for assorted compounds
experiment: chemical genetic growth profiling, strain panel (AID 1159580); conditions: S. cerevisiae deletion strains, growth OD, locus YOR316C, strain cot1, active compounds read low
The campaign covered roughly 5,500 compounds. About 2,000 (36%) were called active. Inconclusive results (about 18%) are left out. The list shows a part of the results.
measurement type: normalized growth

Cc1ccc(-c2cc(C(F)(F)F)nn2-c2ccc(S(N)(=O)=O)cc2)cc1: 1.01
C/C=C(/C)C(=O)O[C@H]1CC[C@@]2(C)[C@@H]3CC[C@H]4[C@]5(O)C[C@H](O)[C@@]6(O)[C@@H](CN7C[C@@H](C)CC[C@H]7[C@@]6(C)O)[C@]5(O)C[C@@]42O[C@]13O: 0.98
Nc1ccc(S(=O)(=O)Nc2cnc3ccccc3n2)cc1: 0.969
CCC(C)C(=O)O[C@H]1[C@H](O)C2C(CN3CC(C)CCC3[C@@]2(C)O)C2C[C@]34O[C@]5(O)C(OC(=O)C(C)(O)CC)CC[C@@]3(C)C5C(OC(C)=O)[C@@H](OC(C)=O)C4[C@@]21O (stereo partly specified): 0.99
O=c1oc2cc(O)ccc2s1: 0.968
Nc1c2ccccc2nc2ccccc12 (tested in a mixture with another compound): 0.938
Nc1c2c(nc3ccccc13)CCCC2O (stereo unspecified): 0.977
Nc1c2c(nc3ccccc13)CCCC2: 1.02
C#C[C@]1(O)CCC2C3CCC4=CC(=O)CC[C@@H]4C3CC[C@@]21C (stereo partly specified): 0.978
Cc1cc(O)cc(=O)o1: 0.986
CC(=O)Nc1ccc(OCC(O)CNC(C)C)cc1 (stereo unspecified): 0.997
CC(=O)/C=C\[C@@H]1[C@@]2(C)CCCC(C)(C)C2CC[C@@]1(C)O (stereo partly specified): 0.977
C/C=C(/C)C(=O)OC1CCC2(C)C3CCC4C5(O)CC(O)C6(O)C(CN7CC(C)CCC7C6(C)O)C5(O)CC42OC13O (stereo unspecified): 0.969
NNc1nncc2ccccc12: 1
COc1ccc2c3c([nH]c2c1)C(C)=NCC3: 0.987
CC(C)=CCCC1(C)C=Cc2c(O)c3c(c(CC=C(C)C)c2O1)OC12C(=CC4CC1C(C)(C)OC2(C/C=C(/C)C(=O)O)C4O)C3=O (stereo unspecified): 0.956

---

normalized growth for assorted compounds
assay: chemical genetic growth profiling, strain panel (AID 1159580); settings: S. cerevisiae deletion strains, growth OD, locus YNL298W, strain CLA4, active compounds read low
Out of some 5,500 compounds screened, about 2,000 (36%) were called active. Roughly 18% stayed inconclusive and do not appear here. This is one part of the list. Where a SMILES comes first, the peptide text is derived from it. Bridges are numbered along the chain shown (N, C = ends). [ ]: non-standard residue; d: D form. The star is where a group is joined. ξ: configuration not given here. ξDab(CH2SO3H) = NC(CCNCS(=O)(=O)O)C(=O)O; Heptanoyl(6-Me) = CC(C)CCCCC(=O)*; Dab = NCC[CH](N)C(=O)O
measurement type: normalized growth

CCC(C)C1NC(=O)C(CCNCS(=O)(=O)O)NC(=O)C(NC(=O)C(CCNCS(=O)(=O)O)NC(=O)C(NC(=O)C(CCNCS(=O)(=O)O)NC(=O)CCCCC(C)C)C(C)O)CCNC(=O)C(C(C)O)NC(=O)C(CCNCS(=O)(=O)O)NC(=O)C(CCNCS(=O)(=O)O)NC(=O)C(C(C)CC)NC1=O (configuration not stated) ({Heptanoyl(6-Me)}-[ξDab(CH2SO3H)]T[ξDab(CH2SO3H)][Dab][ξDab(CH2SO3H)]II[ξDab(CH2SO3H)][ξDab(CH2SO3H)]T; lactam 4-C; configuration not given here): 0.974
Cc1ccc(-c2cc(C(F)(F)F)nn2-c2ccc(S(N)(=O)=O)cc2)cc1: 0.992
C#C[C@]1(O)CCC2C3CCC4=C(CCC(=O)C4)C3CC[C@@]21C (some centres not stated): 0.986
CNC(=O)O/N=C\C(C)(C)SC: 0.983
C[C@]12CCC(=O)C=C1CCC1C2[C@@H](O)C[C@@]2(C)C1CC[C@]2(O)C(=O)CO (some centres not stated): 1.01
CCOP(=S)(OCC)Oc1nc(Cl)c(Cl)cc1Cl: 0.983
NNC(=O)c1ccncc1: 0.986

---

normalized growth for assorted compounds
assay: chemical genetic growth profiling, strain panel (AID 1159580);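 note: tested at 20 µM; growth read once vehicle control cultures reached saturation at 30 °C; 1 = growth at the plate median or of vehicle wells; lower values mean less growth of the strain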; details: S. cerevisiae deletion strains, growth OD, locus YDR162C, strain NBP2, active compounds read low
In all, about 5,500 compounds went through this assay and about 2,000 (36%) were called active. About 18% were inconclusive and are not listed. The list shows a part of the results.
measurement type: normalized growth

C[C@@H]1CC[C@]2(C(=O)O)CC[C@]3(C)C(=CCC4[C@@]5(C)CC[C@H](O)C(C)(C)C5CC[C@]43C)C2[C@H]1C (stereo partly drawn): 1.07
C#C[C@]1(O)CCC2C3CCC4=CC(=O)CC[C@@H]4C3CC[C@@]21CC (stereo partly drawn): 0.997
CC(=O)NCc1c(I)c(NC(C)=O)c(I)c(C(=O)O)c1I: 0.997

---

experiment: chemical genetic growth profiling, strain panel (AID 1159580);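 note: tested at 20 µM; growth read once vehicle control cultures reached saturation at 30 °C; 1 = growth at the plate median or of vehicle wells; lower values mean less growth of the strain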; details: S. cerevisiae deletion strains, growth OD, locus YFR003C, strain YPI1
About 2,000 (36%) of roughly 5,500 compounds were called active. About 18% were inconclusive and are not listed. Rule as the data show it: active = normalized growth mostly below about 0.91 (no sharp cut-off); inconclusive = no clear call, values can overlap the other calls; inactive = mostly above about 0.92. Some of the results follow.
Classes used: yes (active), no (inactive)

O=C(Nc1ccc(Cl)cc1)SCc1c(Cl)cccc1Cl: no
C=CCc1c(CCC)nc(-c2ccccn2)[nH]c1=O: no
Nc1ccc(Sc2ccccc2)nc1Sc1ccccc1: no
Brc1ccc2[nH]c3c(c2c1)CCC3: no
Clc1ccc2c(c1)c1ccccc1n2CN1CCOCC1: no
S=C(Nc1ccc(Cl)cc1)SCc1c(Cl)cccc1Cl: no
Cc1oc(C(C)(C)C)cc1-c1cc(N)n(-c2ccc(I)cc2)n1: no
O=C(c1ccc(Cl)cc1)N(Cc1ccccc1)Cc1cccnc1: no
CC(C)Cc1ccc(C(C)C(=O)Nc2nn(C)c3ccccc23)cc1 (centres undefined): no
CCCc1nc(-c2ccccn2)[nH]c(=O)c1CC1CC1: no
Cc1nc(-c2ccccn2)nc(N(C)Cc2ccccc2)c1Cl: no
OC1CCN(c2cc(C(F)(F)F)nc3cc(Cl)cc(Cl)c23)CC1: no
Cc1nc(-c2ccccn2)[nH]c(=O)c1Cc1c(Cl)cccc1Cl: no
O=C(N/N=C\c1cc(Br)ccc1O)c1ccccc1Oc1ccccc1: no
O=C(NCC(c1ccccc1)c1c[nH]c2ccccc12)c1ccc(C(F)(F)F)cc1 (centres undefined): no
N#Cc1c2ccccc2nc2ccccc12: yes
O=C(NCC1COc2ccccc2O1)c1ccc(Cl)cc1 (centres undefined): no
O=C(c1cccs1)N(Cc1cccnc1)Cc1ccc(Cl)cc1Cl: no
O=C(NCCNc1ncc(Cl)cc1C(F)(F)F)C(F)(F)Sc1ccccc1: no
O=C(NCCNc1ncc(C(F)(F)F)cc1Cl)C(F)(F)Sc1ccccc1: no
Cc1nc(-c2ccccn2)nc(SCc2ccccc2)c1Cl: no
Cc1csc(NC(=O)Nc2ccc(C(F)(F)F)cc2)c1: no
O=S(=O)(c1ccc(Cl)cc1)N(Cc1cccnc1)Cc1ccc(Cl)cc1Cl: no
O=[N+]([O-])c1cnc(Sc2nnc(SCc3cccc(C(F)(F)F)c3)s2)s1: yes

---

assay: chemical genetic growth profiling, strain panel (AID 1159580);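 note: tested at 20 µM; growth read once vehicle control cultures reached saturation at 30 °C; 1 = growth at the plate median or of vehicle wells; lower values mean less growth of the strain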; settings: S. cerevisiae deletion strains, growth OD, locus YDR001C, strain nth1
About 2,000 (36%) of roughly 5,500 compounds were called active. Inconclusive results (about 18%) are left out. Rule as the data show it: active = normalized growth mostly below about 0.91 (no sharp cut-off); inconclusive = no clear call, values can overlap the other calls; inactive = mostly above about 0.92. This is one part of the list.
Classes used: active, inactive

C/C=C(/C)C(=O)O[C@@H]1[C@H](OC(C)=O)[C@@]2(CO)C(CC1(C)C)C1=CCC3[C@@]4(C)CC[C@H](O[C@@H]5O[C@H](C(=O)O)[C@@H](O[C@@H]6O[C@H](CO)[C@@H](O)[C@H](O)[C@H]6O)[C@H](O)[C@H]5O[C@@H]5O[C@H](CO)[C@@H](O)[C@H](O)[C@H]5O)[C@](C)(CO)C4CC[C@@]3(C)[C@]1(C)C[C@H]2O (some centres not stated): inactive
C[C@H]1[C@H](C)CC[C@]2(CO)CC[C@]3(C)C(=CCC4[C@@]5(C)CC[C@H](O)C(C)(C)C5CC[C@]43C)[C@H]12 (some centres not stated): inactive
CCN1C[C@]2(OC(=O)c3ccccc3NC(C)=O)CCC(OC)[C@]34C1[C@H](CC23)[C@@]1(O)CC(OC)[C@H]2CC4C1(O)[C@H]2OC (some centres not stated): inactive
CC1(C)CC[C@@]2(C(=O)O)C(C1)C1=CCC3[C@@]4(C)CC[C@H](O)C(C)(C)C4CC[C@@]3(C)[C@]1(C)C[C@@H]2O (some centres not stated): inactive
O=c1[nH]cc(F)c(=O)[nH]1: active
CC(C)CC(N(C)C)C1(c2ccc(Cl)cc2)CCC1 (configuration not stated): inactive
CC(CC(=O)C1OC1(C)C)C1C(=O)CC2(C)C3=CCC4C(C)(C)C(OC5OCC(O)C(O)C5O)CCC45CC35C(O)CC12C (configuration not stated): inactive
